- assayed.system: Human AMPK α2β2γ1 (Homo sapiens, UniProt O43741+P54646)
- Construct: The full length cDNAs of human AMPK β2 (NM_005399.3) and human AMPK α2 (NM_006252.3); The full length cDNAs of human AMPK β2 (NM_005399.3); the full length cDNA of human AMPK γ1 (NM_002733.3) had been inserted into pET28b(+); 6×His (N); made in house; host or cells: Escherichia coli BL21 CodonPlus (DE3)-RIL
- Sequence (P54646 whole entry): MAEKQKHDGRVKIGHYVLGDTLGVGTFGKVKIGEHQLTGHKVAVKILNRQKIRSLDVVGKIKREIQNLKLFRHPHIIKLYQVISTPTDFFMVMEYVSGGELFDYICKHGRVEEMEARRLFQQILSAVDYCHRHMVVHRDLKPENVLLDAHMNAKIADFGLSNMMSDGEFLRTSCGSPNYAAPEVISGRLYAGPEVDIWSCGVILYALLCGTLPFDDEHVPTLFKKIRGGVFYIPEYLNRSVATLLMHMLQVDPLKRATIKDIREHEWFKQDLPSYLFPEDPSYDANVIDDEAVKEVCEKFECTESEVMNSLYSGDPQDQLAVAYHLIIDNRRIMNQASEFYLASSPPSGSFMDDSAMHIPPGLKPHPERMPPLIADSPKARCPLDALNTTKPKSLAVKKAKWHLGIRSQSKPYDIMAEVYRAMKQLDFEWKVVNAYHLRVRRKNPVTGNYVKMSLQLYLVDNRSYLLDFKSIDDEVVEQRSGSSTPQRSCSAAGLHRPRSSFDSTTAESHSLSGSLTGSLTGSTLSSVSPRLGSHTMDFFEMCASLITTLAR
- Sequence (O43741 whole entry): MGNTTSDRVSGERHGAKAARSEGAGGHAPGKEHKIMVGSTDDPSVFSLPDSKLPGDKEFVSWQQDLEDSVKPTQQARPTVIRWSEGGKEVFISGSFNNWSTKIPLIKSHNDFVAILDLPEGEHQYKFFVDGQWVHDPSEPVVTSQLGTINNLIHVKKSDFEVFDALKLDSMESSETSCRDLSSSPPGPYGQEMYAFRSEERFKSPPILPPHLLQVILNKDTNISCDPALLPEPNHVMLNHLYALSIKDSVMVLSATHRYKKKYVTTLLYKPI
- Sequence (P54619 whole entry partner): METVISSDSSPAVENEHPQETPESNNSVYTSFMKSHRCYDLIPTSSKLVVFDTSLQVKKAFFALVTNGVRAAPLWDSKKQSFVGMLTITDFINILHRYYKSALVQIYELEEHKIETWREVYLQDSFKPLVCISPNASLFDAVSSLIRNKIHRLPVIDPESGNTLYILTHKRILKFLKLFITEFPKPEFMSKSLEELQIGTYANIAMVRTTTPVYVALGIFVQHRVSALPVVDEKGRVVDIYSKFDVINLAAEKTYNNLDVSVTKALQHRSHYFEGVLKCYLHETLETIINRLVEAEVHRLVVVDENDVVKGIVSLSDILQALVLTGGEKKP
- test.protocol: Test Example 2: activation of phosphorylated human AMPK α2β2γ1 (mobility-shift kinase assay, FL-Peptide 7)
- Assay type: biochemical
- condition.notes: compound concentration showing 150% relative to the control (100%); human AMPK α2β2γ1 phosphorylated with CaMKK2
We use 2 nM as the dividing line for EC150: on or above the line is label 1, below is label 0.

[[record]]
molecule = "CNS(=O)(=O)c1ccc(-c2ccc(-c3nc4cc(O[C@@H]5CO[C@H]6[C@@H]5OC[C@H]6O)[nH]c4cc3F)cc2)nc1"
assayed_system = "Human AMPK α2β2γ1 (Homo sapiens, UniProt O43741+P54646)"
assigned_category = "label 1"


Next item in the queue.
Evaluate COC(=O)N1CCC(Oc2ccc(-c3ccc(-c4nc5cc(O[C@@H]6CO[C@H]7[C@@H]6OC[C@H]7O)[nH]c5cc4F)cc3)cc2)C1 (some centres unmarked) : EC150 at minimum 2 nM?
label 1

---

- assayed.system: Human AMPK α2β2γ1 (Homo sapiens, UniProt O43741+P54646)
- Construct: The full length cDNAs of human AMPK β2 (NM_005399.3) and human AMPK α2 (NM_006252.3); The full length cDNAs of human AMPK β2 (NM_005399.3); the full length cDNA of human AMPK γ1 (NM_002733.3) had been inserted into pET28b(+); 6×His (N); made in house; host or cells: Escherichia coli BL21 CodonPlus (DE3)-RIL
- test.protocol: Test Example 2: activation of phosphorylated human AMPK α2β2γ1 (mobility-shift kinase assay, FL-Peptide 7)
- Format: biochemical
- condition.notes: maximum rate of increase in activity within the measurement range, control = 100%; read-out: Emax
We use 500% as the dividing line for Emax: on or above the line is True, below is False.

Reference set, count: 10
[[record]]
molecule = "Cc1cc(-c2ccc(N=S(C)(C)=O)cc2)ccc1-c1nc2cc(O[C@@H]3CO[C@H]4[C@@H]3OC[C@H]4O)[nH]c2cc1F [Compound I-1-48]"
assigned_category = "True"

[[record]]
molecule = "COCCS(=O)(=O)c1ccc(-c2ccc(-c3nc4cc(O[C@@H]5CO[C@H]6[C@@H]5OC[C@H]6O)[nH]c4cc3F)cc2)cc1 [Compound I-2-95]"
assigned_category = "True"

[[record]]
molecule = "NC(=O)c1ccc(-c2ccc(-c3nc4cc(O[C@@H]5CO[C@H]6[C@@H]5OC[C@H]6O)[nH]c4cc3F)cc2)cc1F [Compound I-1-52]"
assigned_category = "False"

[[record]]
molecule = "COC(=O)N1CCN(c2ccc(-c3nc4cc(O[C@@H]5CO[C@H]6[C@@H]5OC[C@H]6O)[nH]c4cc3F)cc2)CC1 [Compound I-1-57]"
assigned_category = "True"

[[record]]
molecule = "CS(=O)(=O)NC1CC=C(c2ccc(-c3nc4cc(O[C@@H]5CO[C@H]6[C@@H]5OC[C@H]6O)[nH]c4cc3F)cc2)CC1 (some centres unmarked) [Compound I-1-17]"
assigned_category = "False"

[[record]]
molecule = "CC(=O)NC1CC=C(c2ccc(-c3nc4cc(O[C@@H]5CO[C@H](CO)C5)[nH]c4cc3F)cc2)CC1 (some centres unmarked) [Compound I-2-92]"
assigned_category = "True"

[[record]]
molecule = "O[C@@H]1CO[C@H]2[C@@H]1OC[C@H]2Oc1cc2nc(-c3ccc(-c4ccc(Oc5cccnc5)cc4)cc3)c(F)cc2[nH]1 [Compound I-2-36]"
assigned_category = "False"

[[record]]
molecule = "CC(C)OC(=O)NC1CCN(c2ccc(-c3nc4cc(O[C@@H]5CO[C@H]6[C@@H]5OC[C@H]6O)[nH]c4cc3F)cc2)CC1 [Compound I-1-34]"
assigned_category = "True"

[[record]]
molecule = "CNC(=O)OC1CCN(c2ccc(-c3nc4cc(O[C@@H]5CO[C@H]6[C@@H]5OC[C@H]6O)[nH]c4cc3F)cc2)CC1 [Compound I-1-49]"
assigned_category = "True"

[[record]]
molecule = "C[S@](=O)(=Nc1ccc(-c2ccc(-c3nc4cc(O[C@@H]5CO[C@H]6[C@@H]5OC[C@H]6O)[nH]c4cc3F)cc2)cc1)c1ccccc1 [Compound I-1-18]"
assigned_category = "False"


Evaluate CS(C)(=O)=Nc1ccc(-c2ccc(-c3nc4cc(O[C@@H]5CO[C@H](CO)[C@@H]5O)[nH]c4cc3F)cc2)cc1 [Compound I-2-19] : Emax at minimum 500%?
False

Evaluate CC(=O)NC1CCN(c2ccc(-c3nc4cc(O[C@@H]5CO[C@H]6[C@@H]5OC[C@H]6O)[nH]c4cc3F)cc2)CC1 [Compound I-1-31] : Emax at minimum 500%?
True
